# protocol: Serum activation of prodrug, rat serum
# Assay type: in vitro ADME
# experimental-parameters: 50 μg/mL in rat serum, room temperature, 1 hour, assayed for active drug by LC/MS/MS
# Method: Serum activation: Compounds 1, 2, or II were solubilized in water and added to rat, dog, monkey, and human serum at a concentration of 50 μg/mL. The samples were incubated at room temperature for 1 hour then assayed for “active” drug content using an LC/MS/MS assay. Microsomal activation: Compounds 1, 2, or II were solubilized in water and added to rat, dog, monkey, and human liver microsomes at a concentration of 1 μM. […]
Reported half-life at 50 μg/mL values are given for each entry in this list.

Field: example entries. Status: answers known.
compound | half-life at 50 μg/mL
CC(=O)OCOC(=O)c1c(F)ccc2c1OB(O)[C@@H]1C[C@H]21 [Compound 2] | > 60 min
CC(C)C(=O)OCOC(=O)c1c(F)ccc2c1OB(O)[C@@H]1C[C@H]21 [Compound II] | > 60 min

Please turn your attention to the following entry.
Recorded half-life at 50 μg/mL for CCCC(=O)OCOC(=O)c1c(F)ccc2c1OB(O)[C@@H]1C[C@H]21 [Compound 1] , please?
> 60 min

---

# protocol: Microsomal activation of prodrug, monkey liver microsomes
# Assay type: in vitro ADME
# experimental-parameters: 1 μM in monkey liver microsomes, room temperature, assayed for active drug by LC/MS/MS; read-out: Half-life monkey micorsomes
half-life at 1 μM reference
Return type: number; implicit unit min.

# annotated cases, reported half-life at 1 μM shown
molecule | half-life at 1 μM (min)
CC(C)C(=O)OCOC(=O)c1c(F)ccc2c1OB(O)[C@@H]1C[C@H]21 [Compound II] | 2
CC(=O)OCOC(=O)c1c(F)ccc2c1OB(O)[C@@H]1C[C@H]21 [Compound 2] | 3

Below: the item to evaluate.
State the recorded half-life at 1 μM for this entry: CCCC(=O)OCOC(=O)c1c(F)ccc2c1OB(O)[C@@H]1C[C@H]21 [Compound 1]
2

---

# protocol: Serum activation of prodrug, monkey serum
# Type: in vitro ADME
# experimental-parameters: 50 μg/mL in monkey serum, room temperature, 1 hour, assayed for active drug by LC/MS/MS
Attribute: half-life at 50 μg/mL

Below, each entry is followed by its recorded half-life at 50 μg/mL result.
smiles-text | half-life at 50 μg/mL
CC(C)C(=O)OCOC(=O)c1c(F)ccc2c1OB(O)[C@@H]1C[C@H]21 | > 1 h
CC(=O)OCOC(=O)c1c(F)ccc2c1OB(O)[C@@H]1C[C@H]21 | > 1 h

Now for a further molecule.
GET /values?readout=half-life at 50 μg/mL&item= CCCC(=O)OCOC(=O)c1c(F)ccc2c1OB(O)[C@@H]1C[C@H]21
> 1 h

---

# protocol: Microsomal activation of prodrug, rat liver microsomes
# Assay type: in vitro ADME
# experimental-parameters: 1 μM in rat liver microsomes, room temperature, assayed for active drug by LC/MS/MS
attribute-measured: half-life at 1 μM (min)
A number alone suffices; assume min.

Worked examples, 2 compounds total:
compound | half-life at 1 μM [min]
CC(=O)OCOC(=O)c1c(F)ccc2c1OB(O)[C@@H]1C[C@H]21 [Compound 2] | 3
CCCC(=O)OCOC(=O)c1c(F)ccc2c1OB(O)[C@@H]1C[C@H]21 [Compound 1] | 3

Let us move to another entry and its half-life at 1 μM.
Which half-life at 1 μM value belongs to CC(C)C(=O)OCOC(=O)c1c(F)ccc2c1OB(O)[C@@H]1C[C@H]21 [Compound II] ?
5

Where do the numbers come from? From patent US12637481B2.
